# Test system: BxPC3
# Assay Protocol: Cellular anti-proliferative XTT assay
# Format: cell-based
# Measurement Context: Homo sapiens, BXPC-3, 45h incubation
For each of the compounds below, state its pEC50.
Numbers only, as −log10 of the molar value.

Batch request: pEC50 for each of the following compounds.
1. CCNC(=O)Nc1ccc2ncc(-c3ccc(OC(=O)OC)cc3)nc2n1
2. CCNC(=O)Nc1ccc2ncc(-c3ccc(OC(=O)OCCOC)cc3)nc2n1

Result:
[4.70, 5.05]

----------
Values of IC50 reported for PI3Kalpha (Homo sapiens, UniProt P42336) appear below.

Answered cases to consult:
Smiles Code	Target Or System	Readout Value
CCNC(=O)Nc1ccc2ncc(C=CCOC)nc2n1	PI3Kalpha (Homo sapiens, UniProt P42336)	21.3 µM
CONC(=O)Nc1ccc2ncc(-c3ccccc3)nc2n1	PI3Kalpha (Homo sapiens, UniProt P42336)	27.9 µM
CCNC(=O)Nc1ccc2ncc(-c3ccc(OC(=O)C=Cc4ccccc4)cc3)nc2n1	PI3Kalpha (Homo sapiens, UniProt P42336)	> 31.6 µM

Turning now to a further molecule:
Q: Item under review: CCNC(=O)Nc1ccc2ncc(-c3ccc(OC(=O)N(CC)CC)cc3)nc2n1 . Reported IC50?
Result: 3.4 µM

----------
Please respond with reported pIC50 for every item in the list.
# Target Or System: Erk2
# Construct: teils als Volllängenkinasen, teils als verkürzte Fragmente - mindestens aber bestehend aus der funktionellen Kinasedomäne
# Sequence (P63085 2-358 limits assumed): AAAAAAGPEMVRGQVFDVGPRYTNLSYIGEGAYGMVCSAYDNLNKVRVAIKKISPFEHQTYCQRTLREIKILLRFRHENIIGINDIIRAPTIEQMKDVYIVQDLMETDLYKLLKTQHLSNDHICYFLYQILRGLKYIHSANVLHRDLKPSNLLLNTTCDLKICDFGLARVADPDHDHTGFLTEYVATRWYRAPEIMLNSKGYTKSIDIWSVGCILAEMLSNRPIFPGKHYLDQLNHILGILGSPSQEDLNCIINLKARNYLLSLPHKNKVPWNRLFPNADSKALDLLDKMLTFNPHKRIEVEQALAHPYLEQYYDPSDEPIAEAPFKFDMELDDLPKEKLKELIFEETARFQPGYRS
# Assay Protocol: Cell-free kinase assay Erk2-ALPHA (ALPHA technology)
# Measurement Context: 10µM ATP
Give bare numbers, as −log10 of the molar value.

Solved entries:
Compound	Target Or System	Measurement Name	Readout Value
CCNC(=O)Nc1ccc2ncc(C#CC3CC3)nc2n1 [Beispiel 3]	Erk2	pIC50	5.24
CCNC(=O)Nc1ccc2ncc(-c3ccc(OC(=O)OC)cc3)nc2n1 [Beispiel 9]	Erk2	pIC50	6.93

Quick request: pIC50 for each listed item, please.
1. CONC(=O)Nc1ccc2ncc(-c3ccccc3)nc2n1 [Beispiel 7]
2. CCNC(=O)Nc1ccc2ncc(-c3ccc(OC(=O)Oc4ccccc4)cc3)nc2n1 [Beispiel 11]
3. CCNC(=O)Nc1ccc2ncc(-c3ccc(OC(=O)OCCOC)cc3)nc2n1 [Beispiel 10]
4. CCNC(=O)Nc1ccc2ncc(-c3ccc(OC(=O)N(CC)CC)cc3)nc2n1 [Beispiel 12]
5. C=CCONC(=O)Nc1ccc2ncc(-c3ccccc3)nc2n1 [Beispiel 8]

Result:
[6.39, 6.57, 7.06, 5.55, 5.39]
